system: human PBMCs; assay: Cytotoxicity (MTT) in peripheral blood mononuclear cells; format: cell-based; conditions: PBMCs, 24 h, MTT
Measure name: CC50 (µM)

>>> observed_measurement("C[C@@H]1[C@H](O)[C@@H](C)/C=C/C=C/C=C/C=C/C=C/C=C/C=C/[C@H](O[C@@H]2O[C@H](C)[C@@H](O)[C@H](N)[C@@H]2O)C[C@@H]2O[C@](O)(C[C@@H](O)C[C@@H](O)[C@H](O)CC[C@@H](O)C[C@@H](O)CC(=O)O[C@H]1C)C[C@H](O)[C@H]2C(=O)O [AmB, Amphotericin B, reference compound]")
29.9

---

assay: Cytotoxicity (MTT) in peripheral blood mononuclear cells; assay type: cell-based, human; details: human, peripheral blood mononuclear cells (PBMCs); at 125 μM, 24 h; read-out: PBMC viability
Measure name: viability at 24 h, 125 µM (%)

>>> observed_measurement("Cc1ccc(C(=O)/C=C/c2ccc(OCC(=O)NC3CCCCC3)cc2)cc1 [Compound 4a]")
61.2

---

assay: Cytotoxicity (MTT) in peripheral blood mononuclear cells; type: cell-based, human; settings: human, peripheral blood mononuclear cells (PBMCs); at 25 μM, 24 h; read-out: PBMC viability
Measure name: viability at 24 h, 25 µM (%)

>>> observed_measurement("C[C@@H]1[C@H](O)[C@@H](C)/C=C/C=C/C=C/C=C/C=C/C=C/C=C/[C@H](O[C@@H]2O[C@H](C)[C@@H](O)[C@H](N)[C@@H]2O)C[C@@H]2O[C@](O)(C[C@@H](O)C[C@@H](O)[C@H](O)CC[C@@H](O)C[C@@H](O)CC(=O)O[C@H]1C)C[C@H](O)[C@H]2C(=O)O [AmB, Amphotericin B, reference compound]")
61.9

---

test: Cytotoxicity (MTT) in peripheral blood mononuclear cells; assay type: cell-based, human; conditions: human, peripheral blood mononuclear cells (PBMCs); at 250 μM, 24 h; read-out: PBMC viability
Measure name: viability at 24 h, 250 µM (%)

>>> observed_measurement("COc1ccc(C(=O)/C=C/c2ccc(OCC(=O)NC3CCCCC3)cc2)cc1 [Compound 4b]")
65.1
>>> observed_measurement("Cc1ccc(C(=O)/C=C/c2ccc(OCC(=O)NC3CCCCC3)cc2)cc1 [Compound 4a]")
33

---

experiment: Cytotoxicity (MTT) in peripheral blood mononuclear cells; format: cell-based, human; settings: human, peripheral blood mononuclear cells (PBMCs); at 50 μM, 24 h; read-out: PBMC viability
Measure name: viability at 24 h, 50 µM (%)

>>> observed_measurement("C[C@@H]1[C@H](O)[C@@H](C)/C=C/C=C/C=C/C=C/C=C/C=C/C=C/[C@H](O[C@@H]2O[C@H](C)[C@@H](O)[C@H](N)[C@@H]2O)C[C@@H]2O[C@](O)(C[C@@H](O)C[C@@H](O)[C@H](O)CC[C@@H](O)C[C@@H](O)CC(=O)O[C@H]1C)C[C@H](O)[C@H]2C(=O)O [AmB, Amphotericin B, reference compound]")
40.8

---

assay: Cytotoxicity (MTT) in peripheral blood mononuclear cells; type: cell-based, human; settings: human, peripheral blood mononuclear cells (PBMCs); at 100 μM, 24 h; read-out: PBMC viability
Measure name: viability at 24 h, 100 µM (%)

>>> observed_measurement("C[C@@H]1[C@H](O)[C@@H](C)/C=C/C=C/C=C/C=C/C=C/C=C/C=C/[C@H](O[C@@H]2O[C@H](C)[C@@H](O)[C@H](N)[C@@H]2O)C[C@@H]2O[C@](O)(C[C@@H](O)C[C@@H](O)[C@H](O)CC[C@@H](O)C[C@@H](O)CC(=O)O[C@H]1C)C[C@H](O)[C@H]2C(=O)O [AmB, Amphotericin B, reference compound]")
30.4

---

test: Cytotoxicity (MTT) in peripheral blood mononuclear cells; assay type: cell-based, human; settings: human, peripheral blood mononuclear cells (PBMCs); at 1000 μM, 24 h; read-out: PBMC viability
Measure name: viability at 24 h, 1000 µM (%)

>>> observed_measurement("COc1ccc(C(=O)/C=C/c2ccc(OCC(=O)NC3CCCCC3)cc2)cc1 [Compound 4b]")
31.8

The reported measurements were obtained from paper PMC12649483.
